target-entity: UniProtKB Q5U7L7
assay-info: biochemical
setup-conditions: CCF2-FA fluorescence assay; read-out: VIM2 IC50
Structures can show the parent of a compound that is named as a salt.
Parameter IC50: see the listing below.
assay-readout: IC50 (nM)

>>> measurement("NCC=C1CCN(c2ccc(S(=O)(=O)NC[C@H](O)CN)c(S(N)(=O)=O)c2-c2nn[nH]n2)CC1")
3.44
>>> measurement("C[C@H](CN)NS(=O)(=O)c1ccc(N2CCC(CCN)CC2)c(-c2nn[nH]n2)c1S(N)(=O)=O")
0.71
>>> measurement("NS(=O)(=O)c1c(S(=O)(=O)N[C@@H]2CCNC2)ccc(N2CCCCC(O)C2)c1-c1nnn[nH]1 (some centres unmarked)")
0.65
>>> measurement("CC1(O)CCCN(c2ccc(S(=O)(=O)C3CNC3)c(S(N)(=O)=O)c2-c2nnn[nH]2)C1 (centres unmarked)")
2.18
>>> measurement("CN(C)CC1(O)CCN(c2ccc(S(=O)(=O)N[C@@H]3CCNC3)c(S(N)(=O)=O)c2-c2nnn[nH]2)CC1")
162
>>> measurement("NS(=O)(=O)c1c(S(=O)(=O)N[C@@H]2CCNC2)ccc(NCCN2CCNCC2)c1-c1nnn[nH]1")
200
>>> measurement("NC[C@@H](O)CNS(=O)(=O)c1ccc(N[C@@H]2CCC[C@H]2N)c(-c2nn[nH]n2)c1S(N)(=O)=O")
83.1
>>> measurement("NCC(CN)NS(=O)(=O)c1ccc(N2CCC(CO)CC2)c(-c2nnn[nH]2)c1S(N)(=O)=O")
0.74
>>> measurement("NS(=O)(=O)c1c(S(=O)(=O)N[C@@H]2CCNC2)ccc(N2CCN(C(=O)CO)CC2)c1-c1nnn[nH]1")
1.9
>>> measurement("NCC1CCCN(c2ccc(S(=O)(=O)NC[C@H](O)CN)c(S(N)(=O)=O)c2-c2nn[nH]n2)CC1 (some centres unmarked) [Example 139, trifluoroacetate]")
4.52
>>> measurement("NC[C@@H](O)CNS(=O)(=O)c1ccc(N2CCC(c3c[nH]cn3)CC2)c(-c2nnn[nH]2)c1S(N)(=O)=O")
0.4
>>> measurement("NCCNS(=O)(=O)C1CCN(c2ccc(S(=O)(=O)NC[C@H](O)CN)c(S(N)(=O)=O)c2-c2nn[nH]n2)CC1 [Example 190]")
0.85
>>> measurement("NC[C@@H](O)CNS(=O)(=O)c1ccc(N2CC[C@H](CN)[C@H](O)C2)c(-c2nn[nH]n2)c1S(N)(=O)=O")
6.41
>>> measurement("NCC1CCN(c2ccc(S(=O)(=O)NC[C@@H](N)CN)c(S(N)(=O)=O)c2-c2nn[nH]n2)CC1")
8.28

Where these numbers come from: patent US11207312B2
